Listing: % Inhibition of selected molecules
- System: P. falciparum stage V gametocytes
- Set-up: BacTiter-Glo ATP luminescence viability of purified stage V gametocytes in 384-well plates, per cent inhibition versus DMSO
- testConditions: 48 h, 5 µM; inhibitor
Screen size: about 13,000 compounds; about 3,200 (25%) showed an effect of 50% or more. The list shows a part of the results.
readoutType: % Inhibition (%)

Cc1noc(C)c1-c1ccc2c(Nc3ccc(C#N)cc3)c(C(N)=O)cnc2c1    27.78
CCNc1cc(C(=O)N[C@@H](Cc2ccccc2)[C@H](O)CNC(C)Cc2cccc(Cl)c2)cc(N2CCCCS2(=O)=O)c1 (stereo partly shown)    76.43
CCN(CCCN1CCCCC1)c1cc(C)nc(Nc2ccc(Cl)cc2C)n1    51.94
CCNc1cc(C(=O)N[C@@H](Cc2ccccc2)[C@H](O)CNC(C)(C)Cc2cccc(Cl)c2)cc(N2CCCCS2(=O)=O)c1    13.84
CCNc1cc(C(=O)N[C@@H](Cc2cccc(Cl)c2)[C@H](O)CNC(C)CCCC(C)C)cc(N2CCCCS2(=O)=O)c1 (stereo partly shown)    15.74
CCCNC(=O)c1ccc(N2CCC(c3ccccc3C)CC2)nc1    17.76
FC(F)(F)c1ccc2nc(-c3cccc(-c4cccc(CNCCN5CCNCC5)c4)c3)[nH]c2c1    79.56
CC=CC(=O)N1CCN(c2nccc(-c3ccc(C(C)(C)C)cc3)n2)CC1    7.647
CCN(CCCN1CCCCC1)c1cc(C)nc(Nc2ccc(C)cc2Cl)n1    11.92
COc1cccc2cc(C(=O)N[C@@H](CC(C)C)C(=O)NC(/C=N/NC(=O)c3ccccc3)CCc3ccccc3)oc12 (stereo partly shown)    -2.183
CN1CCC(c2ccc(NC(=O)c3ccc(-c4cccc(C(F)(F)F)c4)o3)cc2)CC1    6.508
CCCCCN1CCCC1CNS(=O)(=O)c1ccc(C(=O)Nc2cccc(C(F)(F)F)c2)cc1 (stereo not shown)    -7.266
Cn1nccc1C(=O)NCCNCc1cccc(-c2ccc(-c3nc4cc(C(F)(F)F)ccc4[nH]3)cc2)c1.O=C(O)C(F)(F)F    -13.72
CCNc1cc(C(=O)N[C@@H](Cc2ccccc2Cl)[C@H](O)CNC(C)CCCC(C)C)cc(N2CCCCS2(=O)=O)c1 (stereo partly shown)    92.78
CCN(CCCN1CCCCC1)c1cc(C)nc(Nc2ccc(C)cc2C)n1    14.07
CCCc1cc(OC)c(C[C@@H]2c3cc(O)c(Cl)cc3CCN2C)cc1OC    -6.481
O=C(/C=C/c1ccc(Cl)c(Cl)c1)NCCCCCCN1CCN(C(=O)Nc2ccc(Cl)c(C(F)(F)F)c2)CC1    -47.93
COc1cc(CNC[C@@H](O)[C@H](Cc2ccccc2)NC(=O)c2cc(C3CCCC3)cc(N3CCCCS3(=O)=O)c2)cc(OC)c1    14.07
CCN(CCCN1CCCCC1)c1cc(C)nc(Nc2ccc3c(c2)CCC3)n1    -21.7
Cn1nccc1C(=O)NCCNCc1ccc(-c2cccc(-c3nc4cc(C(F)(F)F)ccc4[nH]3)c2)cc1.O=C(O)C(F)(F)F    -36.49
CCNc1cc(C(=O)N[C@@H](Cc2ccccc2)[C@H](O)CNC(C)CCCC(C)C)cc(N2CCCS2(=O)=O)c1 (stereo partly shown)    1.46
O=C(O)C(F)(F)F.O=C1CCCN1CCCNCc1cccc(-c2cccc(-c3nc4cc(C(F)(F)F)ccc4[nH]3)c2)c1    -20.15
CCCC(C)NC[C@@H](O)[C@H](Cc1ccccc1)NC(=O)c1cc(C2CCCC2)cc(N2CCCCS2(=O)=O)c1 (stereo partly shown)    60.63
CC(C)(CNC(=O)[C@@H]1CCCN(Cc2ccc(Cl)cc2)C1)c1nc(-c2ccc(Cl)c(O)c2)c(-c2ccncc2)[nH]1    5.708
CCCCCN1CCC(NC(=O)c2ccc(C(=O)Nc3ccc(C(C)C)cc3)cc2)CC1    8.673

---

- System: P. falciparum stage V gametocytes
- Design: BacTiter-Glo ATP luminescence viability of purified stage V gametocytes in 384-well plates, per cent inhibition versus DMSO
- testConditions: 48 h, 5 µM; inhibitor
About 3,200 (25%) of roughly 13,000 compounds showed an effect of 50% or more. The list shows a part of the results.
Listing: % Inhibition of selected molecules
readoutType: % Inhibition

CC(C)(C)c1ccc(Cn2nc(C(=O)N3CCN(C(=O)C4CCCO4)CC3)c3ccccc32)cc1 (centres unmarked)    -2.653%
CCN(CC)c1ccc(C(=O)Cn2ccc(=N)cc2)cc1    -2.203%
N#Cc1ccc(NC(=O)c2ccc(Cc3ccc4c(c3)CCN(C3CCC3)CC4)cn2)cc1    22.22%
CNS(=O)(=O)c1ccc2c(c1)nc(C1CCN(CC3CCC(NC(=O)/C=C/c4ccc(Cl)c(Cl)c4)CC3)CC1)n2C (centres unmarked)    8.841%
NCC1CCCN1Cc1ccc(-c2ccc(-c3nc4ccccc4[nH]3)s2)cc1 (centres unmarked)    37.26%
O=C1COc2ccc3ccccc3c21    4.476%
CN(C)CCOc1cc(NC(=O)Nc2ccc(-c3ccccc3)cc2)ccc1I    -45.78%
CS(=O)(=O)c1cccc(-c2ccc3oc(C(N)=O)c(NC(=O)c4cccs4)c3c2)c1    19.31%
O=C(Cc1cnc[nH]1)Nc1cccc(-c2cccc(-c3nc4ccc(C(F)(F)F)cc4[nH]3)c2)c1    -28.45%
CCCC(C)NC(=O)[C@H](CC1CCCCC1)NC(=O)c1ccc(O)c(-c2ccc(OC)cc2)c1 (some centres unmarked)    27.46%
COc1cc(Cc2cnc(N)nc2N)cc(OCCCCNS(=O)(=O)C(F)(F)F)c1OC    8.081%
CCC(C)CC(=O)Nc1ccc(OC)c(S(=O)(=O)N[C@@H]2CCN(C#N)C2)c1 (some centres unmarked)    14.31%
CCOCc1cn(CC(=O)c2ccc(-c3ccccc3)cc2)c(C)nc1=N    -19.83%
Cc1ccc(Cc2c(C)nc3nc(N)nc(N)c3c2C)cc1    -7.172%
NC(N)=NC(=O)Nc1cc(Cl)c(Cl)c(C(F)(F)F)c1    -11.78%
Fc1ccc2nc(-c3ccc(-c4ccc(CN5CCN(CCN6CCOCC6)CC5)cc4)cc3)[nH]c2c1    -0.4105%
Cc1nn(C)cc1C(C)Nc1nncc(-c2ccc(C(F)(F)F)cc2)n1 (centres unmarked)    -19.2%
CC(C)(C)NC(=O)C(c1ccc(F)cc1)N(C(=O)c1ccc(CN2CCOCC2)o1)c1ccc(C2CCCCC2)cc1 (centres unmarked)    -47.12%
CCN(CC)CCn1c(=N)n(CC(=O)c2ccc(-c3ccccc3)cc2)c2ccccc21    67.24%
NCC1CCCN1Cc1cccc(-c2cccc(-c3nc4ccc(F)cc4[nH]3)c2)c1 (centres unmarked)    98.63%
CCOC(=O)c1ccc(NCc2ccccn2)cc1    -4.555%
COc1cc(OC)cc(C(=O)Nc2ccc(Nc3nc(C)cc(N(C)C)n3)cc2)c1    23.32%
N#Cc1cccc(Nc2nccc(Nc3ccc(Oc4ccccc4)cc3)n2)c1    -36.77%

---

- Tested on: P. falciparum stage V gametocytes
- Parameters: BacTiter-Glo ATP luminescence viability of purified stage V gametocytes in 384-well plates, per cent inhibition versus DMSO
- testConditions: 48 h, 5 µM; inhibitor
The whole screen tested about 13,000 compounds, of which about 3,200 (25%) showed an effect of 50% or more. The list shows a part of the results.
Listing: % Inhibition of selected molecules
readoutType: % Inhibition (%)

COc1ccc2c(c1)CCN(CCN1CCC(CNC(=O)c3ccc(-c4ccc(C#N)cc4)cc3)CC1)C2 [TCMDC-138881]    -33.61
CCCCCCCN(Cc1ccc(OC(C)(C)C(=O)OCC)cc1)C(=O)Nc1ccccc1OC(F)(F)F [TCMDC-131918]    45.53
Cc1nc(-c2ccccc2)nc(N2CCN(C(=O)c3ccco3)CC2)c1Cc1ccccc1F [TCMDC-124778]    -3.417
Cc1cc(Nc2ccccc2)nc(Nc2ccccc2)n1 [TCMDC-124214]    11.37
Cc1cc(NC(=O)Nc2ccc3nc(C)oc3c2)c2cc(Cl)ccc2n1 [TCMDC-140076]    38.43
Cc1cccc(NC(=O)c2ccc(C(=O)NC3CCN(CC4CCCCC4)CC3)cc2)c1 [TCMDC-136748]    -45.39
COc1cc2c(cc1S(=O)(=O)c1ccc(NC(=O)c3ccc4ccccc4c3)cc1)CCN(C)CC2 [TCMDC-133792]    8.081

---

- Test system: P. falciparum stage V gametocytes
- Parameters: BacTiter-Glo ATP luminescence viability of purified stage V gametocytes in 384-well plates, per cent inhibition versus DMSO
- testConditions: 48 h, 5 µM; inhibitor
The whole screen tested about 13,000 compounds, of which about 3,200 (25%) showed an effect of 50% or more. The list shows a part of the results.
readoutType: % Inhibition (%)

O=C(NC1CCC(N2CCC(c3nc4ccccc4s3)CC2)CC1)c1cc2ccccc2[nH]1 (stereo not shown)    -77.63
Cc1ccccc1N1CCN(c2ccc(C(=O)Nc3ccccc3)cc2)CC1    28.84
C=CCc1cc(Cc2cnc(N)nc2N)cc(CCC)c1OC    23.16
Clc1cc(Cl)c2cc(CN[C@H]3CCC[C@@H]3CNc3nc4ccccc4[nH]3)[nH]c2c1    63.13
O=[N+]([O-])c1cccc(CNCC2CCC(CNCc3cccc([N+](=O)[O-])c3)CC2)c1 (stereo not shown)    8.201
COc1cc(Nc2nccc(NCC(O)c3ccc(C(F)(F)F)cc3)n2)cc(OC)c1OC (stereo not shown)    -6.814
CCOc1ccc(N2C(N)=NC(N)=NC2(C)C)cc1    3.734
Clc1cc(Cl)c2c(c1)C(NCCCNc1nc3ccccc3[nH]1)CCO2 (stereo not shown)    -25.37
Cc1cc(N2CCCC2)nc(Nc2ccc(NC(=O)c3ccco3)cc2)n1    -16.57
CCn1c(C)c(C)c2cc(C(=O)Nc3ccon3)ccc21    28.52
O=C(NCc1cccc(F)c1)Nc1cccc(-c2cccc(-c3nc4ccccc4[nH]3)c2)c1    0.3342
c1cn(CCCNc2ncc(-c3ccsc3)c(-c3nccs3)n2)cn1    29.61
c1ccc2c(CNc3ccnc(NCc4cccc5ccccc45)n3)cccc2c1    43.11
